Target: MKK6 (Homo sapiens, UniProt P52564)
Sequence (P52564 1-334): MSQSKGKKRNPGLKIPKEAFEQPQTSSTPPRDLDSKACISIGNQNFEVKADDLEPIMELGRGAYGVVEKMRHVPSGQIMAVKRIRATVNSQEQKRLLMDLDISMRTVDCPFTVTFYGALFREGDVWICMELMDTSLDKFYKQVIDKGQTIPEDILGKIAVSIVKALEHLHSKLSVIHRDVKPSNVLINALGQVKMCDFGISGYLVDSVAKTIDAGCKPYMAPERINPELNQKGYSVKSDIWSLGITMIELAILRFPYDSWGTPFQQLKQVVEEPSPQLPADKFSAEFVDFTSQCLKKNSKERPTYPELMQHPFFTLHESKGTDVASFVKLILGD
Test: Kinase profiling MKK6
Assay type: biochemical
Conditions: 100 micromolar inhibitor concentration; 100 is no change
Below: a set of entries, each annotated with reported residual kinase activity, MKK6.
Field format: numeric only.

Assay MKK6 (Homo sapiens, UniProt P52564), sample `O=C(Nc1nc2cc(O)ccc2s1)c1ccncc1` , residual kinase activity, MKK6 read: 101

Param item: `O=C(Nc1nc2ccc(O)cc2s1)c1cccnc1` ; param system: MKK6 (Homo sapiens, UniProt P52564); output residual kinase activity, MKK6: 107

Record for `CC(=O)Nc1cccc(C(=O)Nc2nc3ccc(O)cc3s2)c1` under target or system MKK6 (Homo sapiens, UniProt P52564): residual kinase activity, MKK6 reported as 103

// residual kinase activity, MKK6 (MKK6 (Homo sapiens, UniProt P52564)) for `CC(=O)Nc1nc2cc(C)ccc2s1` = 113

Assay MKK6 (Homo sapiens, UniProt P52564), sample `O=C(Nc1nc2ccc(O)cc2s1)c1ccncc1` , residual kinase activity, MKK6 read: 101

The compound `CC(=O)Nc1cccc(C(=O)Nc2nc3cc(O)ccc3s2)c1` , tested on MKK6 (Homo sapiens, UniProt P52564), showed residual kinase activity, MKK6 of 98

The measured residual kinase activity, MKK6 that `O=C(Nc1nc2cc(O)ccc2s1)c1cccnc1` showed for MKK6 (Homo sapiens, UniProt P52564) is 122

The recorded residual kinase activity, MKK6 with MKK6 (Homo sapiens, UniProt P52564) for `COc1ccc2sc(NC(=O)c3cccc(NC(C)=O)c3)nc2c1` was 99

Bench note, MKK6 (Homo sapiens, UniProt P52564): `COc1ccc2sc(NC(=O)c3ccc(NC(C)=O)cc3)nc2c1` , residual kinase activity, MKK6 reads 111

Now look at this one.
# `CC(=O)Nc1ccc(C(=O)Nc2nc3cc(O)ccc3s2)cc1` with MKK6 (Homo sapiens, UniProt P52564): residual kinase activity, MKK6 is 107
